As shown below, each of these compounds has a reported inhibition in vivo at 20 mg/kg value.
test system: Rattus norvegicus; experiment: Antiinflammatory activity in Wistar rat assessed as inhibition of carrageenan-induced paw edema at 20 mg/kg, po administered prior to carrageenan challenge measured after 3 hrs post carrageenan challenge; assay type: functional
Field: numeric (%). Do not append units.

Example compounds with recorded inhibition in vivo at 20 mg/kg:
> print(dat)
                              sample.smiles                      value.type  observed.measurement
1  COc1ccc2c(c1)c(CC(=O)O)c(C)n2C(=O)c1ccc(Cl)cc1  inhibition in vivo at 20 mg/kg                  65.1
2  COc1ccc2[nH]c3c(c2c1)CCN[C@@H]3C[C@H]1OC[C@@H](N)[C@@H](C)O1  inhibition in vivo at 20 mg/kg                  68.5
3  C[C@H]1O[C@@H](C[C@H]2NCCc3c2[nH]c2ccccc32)OC[C@H]1NC(=O)Cc1ccccc1  inhibition in vivo at 20 mg/kg                  47.6
4  COC(=O)[C@@H]1Cc2c([nH]c3ccccc23)[C@@H](C[C@H]2OC[C@@H](N)[C@@H](C)O2)N1  inhibition in vivo at 20 mg/kg                  61.4
5  COC(=O)[C@@H]1Cc2c([nH]c3ccccc23)[C@H](C[C@H]2OC[C@@H](NC(=O)Cc3ccccc3)[C@@H](C)O2)N1  inhibition in vivo at 20 mg/kg                  38.1
6  COC(=O)[C@@H]1Cc2c([nH]c3ccccc23)[C@@H](C[C@H]2OC[C@@H](NC(=O)Cc3ccccc3)[C@@H](C)O2)N1  inhibition in vivo at 20 mg/kg                  49.2

Prompt: Entry under review: C[C@H]1O[C@@H](CC=O)OC[C@H]1NC(=O)Cc1ccccc1 . Reported inhibition in vivo at 20 mg/kg?
Response: 17.5

Prompt: Look up inhibition in vivo at 20 mg/kg for this compound: COc1ccc2[nH]c3c(c2c1)CCN[C@@H]3C[C@H]1OC[C@@H](NC(=O)Cc2ccccc2)[C@@H](C)O1
Response: 52.4

Prompt: Entry under review: C[C@H]1O[C@@H](C[C@H]2NCCc3c2[nH]c2ccccc32)OC[C@H]1N . Reported inhibition in vivo at 20 mg/kg?
Response: 59.7

Prompt: Quick one: inhibition in vivo at 20 mg/kg for COC(C[C@H]1OC[C@@H](NC(=O)Cc2ccccc2)[C@@H](C)O1)OC ?
Response: 33.3

Prompt: Returns the measured inhibition in vivo at 20 mg/kg for the input compound. Input: COC(=O)[C@@H]1Cc2c([nH]c3ccccc23)[C@H](C[C@H]2OC[C@@H](N)[C@@H](C)O2)N1
Response: 39.7

* * *

Attribute: EC50
tested on: PC-12; test: Antioxidant activity against H2O2 scavenging activity in rat PC12 cells assessed as cell survival after 14 hrs by MTT assay; assay type: functional, cell-based; details: PC-12, 14 h
Dear colleague, please return just the value in µM, with no unit written.

> print(dat)
                              sample.smiles  observed.measurement
1  COc1ccc2[nH]c3c(c2c1)CCN[C@@H]3C[C@H]1OC[C@@H](NC(=O)Cc2ccccc2)[C@@H](C)O1                  86.8
2  COc1ccc2[nH]c3c(c2c1)CCN[C@@H]3C[C@H]1OC[C@@H](N)[C@@H](C)O1                  32.5
3  COC(=O)[C@@H]1Cc2c([nH]c3ccccc23)[C@@H](C[C@H]2OC[C@@H](N)[C@@H](C)O2)N1                  45.7

Please look at the following compound next.
Prompt: So what EC50 did COC(=O)[C@@H]1Cc2c([nH]c3ccccc23)[C@@H](C[C@H]2OC[C@@H](NC(=O)Cc3ccccc3)[C@@H](C)O2)N1 get with PC-12?
Response: 91.6
